Tested on: POU1 (OCT1 POU domain);BOB1 (OBF1, OCA-B) (human;human, UniProt P14859;Q16633 260-458;1-256, |)
Sequence (P14859 260-458, chain 1 of 2): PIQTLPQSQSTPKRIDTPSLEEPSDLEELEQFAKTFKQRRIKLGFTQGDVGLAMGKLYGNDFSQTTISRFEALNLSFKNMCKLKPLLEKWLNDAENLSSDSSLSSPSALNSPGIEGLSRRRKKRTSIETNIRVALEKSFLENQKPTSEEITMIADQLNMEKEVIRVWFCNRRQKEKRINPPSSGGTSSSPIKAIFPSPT
Sequence (Q16633 whole entry, chain 2 of 2, the tested form may be a part): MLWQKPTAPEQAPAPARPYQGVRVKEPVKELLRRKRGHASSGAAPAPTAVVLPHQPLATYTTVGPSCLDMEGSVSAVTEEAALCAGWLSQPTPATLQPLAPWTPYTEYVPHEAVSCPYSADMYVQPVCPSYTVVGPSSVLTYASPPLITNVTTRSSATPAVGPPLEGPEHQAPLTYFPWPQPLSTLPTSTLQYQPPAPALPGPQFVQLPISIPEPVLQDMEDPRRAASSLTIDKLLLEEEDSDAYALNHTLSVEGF
Procedure details: EMSA-SELEX-seq; with BOB1 (ternary complex band); 20 mM Tris-HCl pH 7.6, 140 mM NaCl, 10% glycerol, 0.5 mM EDTA, 0.05% Triton X-100, 0.1 mg/mL BSA, 0.1 mg/mL poly(dI-dC), 5 mM DTT, room temperature, 20 min; high values mean tight binding
Particulars: protein: recombinant;recombinant; copies: 1;1; dsDNA, one strand shown
Quantity name: binding signal

Consider the worked cases shown below.
ACTGGAAT; 0.0558 % of ANNNNAAN 8-mers
ATAGCAAG; 0.0394 % of ANNNNAAN 8-mers
ATAGTAAG; 0.0656 % of ANNNNAAN 8-mers
AAATAAAT; 0.232 % of ANNNNAAN 8-mers
AGAAAAAA; 0.0812 % of ANNNNAAN 8-mers

Hi team, please reply with binding signal for each item in this list.
1. AATTGAAA
2. AGAACAAG
3. ATACCAAC
4. AACGTAAC
5. AATGAAAC
6. AGCTTAAA
7. AGGTTAAG

1: 0.114 % of ANNNNAAN 8-mers; 2: 0.0219 % of ANNNNAAN 8-mers; 3: 0.0242 % of ANNNNAAN 8-mers; 4: 0.0211 % of ANNNNAAN 8-mers; 5: 0.0433 % of ANNNNAAN 8-mers; 6: 0.0258 % of ANNNNAAN 8-mers; 7: 0.0542 % of ANNNNAAN 8-mers

Hi team, please reply with binding signal for each item in this list.
1. ACCTGAAG
2. ACAAGAAC
3. AACTAAAG
4. ACAATAAA
5. AATCCAAA
6. ATCGAAAC
7. ATTCAAAC

0.0164 % of ANNNNAAN 8-mers
0.0144 % of ANNNNAAN 8-mers
0.0293 % of ANNNNAAN 8-mers
0.0453 % of ANNNNAAN 8-mers
0.0726 % of ANNNNAAN 8-mers
0.0316 % of ANNNNAAN 8-mers
0.199 % of ANNNNAAN 8-mers
